Data origin, for the record: the supplement of paper PMC7877785

Listing: self-splicing fitness (ln) of selected sequences
- assay_method_text: self-splicing fitness, log relative to wild type (ln ratio); higher = more splicing; Tetrahymena group I intron in knt gene, E. coli kanamycin selection, DiMSum; sequences stand for … in CUCUCU…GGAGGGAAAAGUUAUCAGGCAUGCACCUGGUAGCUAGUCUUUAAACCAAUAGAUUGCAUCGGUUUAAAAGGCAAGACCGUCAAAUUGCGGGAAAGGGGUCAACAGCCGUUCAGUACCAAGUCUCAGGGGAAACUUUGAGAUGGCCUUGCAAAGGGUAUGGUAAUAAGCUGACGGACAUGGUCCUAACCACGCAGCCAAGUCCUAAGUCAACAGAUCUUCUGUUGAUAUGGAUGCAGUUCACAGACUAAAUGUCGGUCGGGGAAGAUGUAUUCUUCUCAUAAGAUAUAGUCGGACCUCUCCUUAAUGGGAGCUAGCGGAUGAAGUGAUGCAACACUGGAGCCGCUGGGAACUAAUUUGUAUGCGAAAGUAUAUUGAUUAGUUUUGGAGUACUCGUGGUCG;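 note: selection with 25 µg/mL kanamycin versus none on LB agar overnight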
- measurement_parameters: 37 °C
No unit in the answer, please; the number alone is enough.

Value of self-splicing fitness (ln) reported for the sequence UGGUAGCAAUAUUACGUAUG is -1.18

Value of self-splicing fitness (ln) reported for the sequence UCGCAGCAAUAUUACGGCGU is 0.251

Value of self-splicing fitness (ln) reported for the sequence AUCAAGCAAUAUUACGAAAC is -3.17

Value of self-splicing fitness (ln) reported for the sequence CUGAAGCAAUAUUACGGUUU is -2.72

Value of self-splicing fitness (ln) reported for the sequence GGGCAGCAAUAUUACGAAUA is 0.108

Value of self-splicing fitness (ln) reported for the sequence AGUCAGCAAUAUUACGUUGC is -2.83

Value of self-splicing fitness (ln) reported for the sequence GCGAAGCAAUAUUACGUAAU is -1.07
